Experimental details: viability gain of MRP-1-high H69AR cells under doxorubicin, pilot screen, MRP-1 activator project, CellTiter-Glo, duplicate (AID 807);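 further: compound pretreatment 18-22 h then 72 h combined with doxorubicin; 0% = doxorubicin alone and 100% = vehicle without doxorubicin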
Measurement conditions: H69AR viability with doxorubicin, CellTiter-Glo luminescence; at 10 µM; stronger effect = higher value
Calls of active or inactive are those of the source.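 How the source made its calls: active means viability increase at or above a cutoff of the median across tested compounds plus 3 SD (cut at about 8.5% in these data, passing the limit was not always enough); inconclusive means some gains above the cutoff, reason not given; inactive means the rest.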
Recorded metric: viability increase

>  <Compound>
Cc1cccc(C2CC(c3ccc(F)cc3)Nc3nc(N)nn32)c1 (stereo unspecified)

>  <Recorded metric>
viability increase

>  <Recorded measurement>
0.42% (inactive)

$$$$
>  <Compound>
Cn1c(Cn2c(=O)sc3ccccc32)nnc1SCC(=O)NCc1ccc(F)cc1

>  <Recorded metric>
viability increase

>  <Recorded measurement>
-1.09% (inactive)

$$$$
>  <Compound>
CCCC(=O)NCCCc1nc2ccccc2[nH]1

>  <Recorded metric>
viability increase

>  <Recorded measurement>
1.33% (inactive)

$$$$
>  <Compound>
Cc1ccc(-c2nnc(SCC(=O)Nc3ccccc3F)o2)cc1

>  <Recorded metric>
viability increase

>  <Recorded measurement>
-0.16% (inactive)

$$$$
>  <Compound>
O=C(CCCC(=O)n1cnc2ccccc21)n1cnc2ccccc21

>  <Recorded metric>
viability increase

>  <Recorded measurement>
-1.98% (inactive)

$$$$
>  <Compound>
O=c1c2ccccc2nc(SCc2nnc(-c3ccccc3)o2)n1-c1ccccc1

>  <Recorded metric>
viability increase

>  <Recorded measurement>
-3.18% (inactive)

$$$$
>  <Compound>
N#CC1(c2ccccc2)CCCN1C(=O)c1ccco1 (stereo unspecified)

>  <Recorded metric>
viability increase

>  <Recorded measurement>
-1.54% (inactive)

$$$$
>  <Compound>
CC(N=C1NS(=O)(=O)c2ccccc21)c1ccccc1 (stereo unspecified)

>  <Recorded metric>
viability increase

>  <Recorded measurement>
0.15% (inactive)

$$$$
>  <Compound>
CC1CN(C(=O)Nc2ccc3snnc3c2)c2ccccc21 (stereo unspecified)

>  <Recorded metric>
viability increase

>  <Recorded measurement>
-2.57% (inactive)

$$$$
>  <Compound>
COc1ccc2cc(CCNC(=O)c3c(-c4ccccc4Cl)noc3C)c(=O)[nH]c2c1

>  <Recorded metric>
viability increase

>  <Recorded measurement>
-3.23% (inactive)

$$$$
>  <Compound>
CN(CCc1ccccn1)C(=O)Nc1ccc(F)cc1

>  <Recorded metric>
viability increase

>  <Recorded measurement>
-1.63% (inactive)

$$$$

====

Experimental details: growth suppression of beta-catenin knockout HCT116, pilot screen, human colon tumor cells (AID 823);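 further: 0% = wells killed by 20 µM Hyamine and 100% = untreated DMSO cell wells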
Measurement conditions: CellTiter-Glo, 60 h, at 10 µM, stronger effect = lower value
Inconclusive results are not listed.
Recorded metric: viability (%)

>  <Compound>
COc1ccc(N(CC(=O)N2CCN(C)CC2)S(=O)(=O)c2ccccc2)cc1OC

>  <Recorded metric>
viability

>  <Recorded measurement>
104

$$$$
>  <Compound>
CCOC(=O)N1CCC(Nc2cc(C)nc3c(-c4ccccc4OC)c(C)nn23)CC1

>  <Recorded metric>
viability

>  <Recorded measurement>
81.3

$$$$
>  <Compound>
Cn1nc(-c2ccc(Cl)cc2)c2cc(C(=O)N3CCOCC3)sc21

>  <Recorded metric>
viability

>  <Recorded measurement>
89.4

$$$$
>  <Compound>
CCOC(=O)C1=C(O)CSC1=Nc1ccc(Cl)cc1

>  <Recorded metric>
viability

>  <Recorded measurement>
107

$$$$
>  <Compound>
CC(NC(=O)c1ccco1)C(c1cccs1)N1CCOCC1 (stereo unspecified)

>  <Recorded metric>
viability

>  <Recorded measurement>
101

$$$$
>  <Compound>
Cc1cnc(C(=O)OCC(=O)Nc2ccc(Cl)cc2)cn1

>  <Recorded metric>
viability

>  <Recorded measurement>
101

$$$$
>  <Compound>
CC(C)(C)c1ccc(NC(=O)NCc2ccco2)cc1

>  <Recorded metric>
viability

>  <Recorded measurement>
63.8

$$$$
>  <Compound>
COc1cc(C(=O)NCC(c2cccnc2)N2CCN(c3ccccc3)CC2)cc(OC)c1OC (stereo unspecified)

>  <Recorded metric>
viability

>  <Recorded measurement>
98.4

$$$$
>  <Compound>
CCCSCCCNC(=O)Cn1cc2c(n1)CCCCC2

>  <Recorded metric>
viability

>  <Recorded measurement>
94

$$$$
>  <Compound>
COc1ccc(N2CCN(Cc3nc4c(c(=O)n(C)c(=O)n4C)n3Cc3cccc(C)c3)CC2)cc1

>  <Recorded metric>
viability

>  <Recorded measurement>
80.1

$$$$
>  <Compound>
O=C(O)CCc1ccc(-c2cccs2)n1NC(=O)c1ccc(Cl)cc1

>  <Recorded metric>
viability

>  <Recorded measurement>
98

$$$$

Taken from PubChem BioAssay.
